Target: MLXBIR3SG (Homo sapiens, UniProt Q96CA5, S150G)
Construct: His6 tag (MGSSHHHHHH, followed by linker with LVPRGS thrombin site) (N)
Sequence (Q96CA5 with tags, fused parts or gaps S150G): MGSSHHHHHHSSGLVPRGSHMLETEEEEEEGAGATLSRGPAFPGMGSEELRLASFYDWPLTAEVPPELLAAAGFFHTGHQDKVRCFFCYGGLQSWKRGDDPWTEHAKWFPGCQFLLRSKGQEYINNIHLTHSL
Test: Fluorescence Polarization Peptide Binding Assay (competition with AVP-diPhe-FAM probe)
Details: MLXBIR3SG at 30 nM, 5 nM AVP-diPhe-FAM probe, Ki determined from IC50 values, unit inferred
// reported pKi for each item listed
Hey, just a heads up that pKi is the negative log base 10 of the concentration in molar.

# count of solved cases: 3
# smiles_input, pKi
records = [
    ("C[C@H](NCCO)C(=O)N[C@H](C(=O)N1CCC[C@H]1c1nc2c(-c3ccccc3)ccnc2s1)C1CCCCC1", 6.84),
    ("CN[C@@H](C)C(=O)N[C@H](C(=O)N1CCC[C@H]1c1nc2c(-c3ccccc3)ncnc2s1)C1CCN(C(=O)COC)CC1", 7.47),
    ("C[C@H](NCCO)C(=O)N[C@H](C(=O)N1CCC[C@H]1c1nc2c(-c3ccccc3)nccc2s1)c1ccccc1", 7.25),
]

Problem: Recorded pKi of "C[C@@H](NCCO)C(=O)N[C@H](C(=O)N1CCC[C@H]1c1nc2c(-c3ccccc3)nccc2s1)C1CCCCC1" , please.
Solution: 5.10
